biological target: D93, recombinant humanized IgG1 kappa antibody targeting denatured-collagen; experiment: competition ELISA on coated human dn-collagen IV
Square brackets hold non-standard residues; d marks the D form. Ends that are not written are not given here. Hyp = O=C(O)[C@@H]1C[C@@H](O)CN1
PARAMETER MEASURED: % inhibition of D93 binding to dn-collagen IV, peptide 10 µM (%)

* GPXGPXGP (hydroxyproline at the P positions marked in Tables 13 and 14; marking lost in this text) [synthetic peptide No. 17, GPPGPPGP (SEQ ID NO: 31)] | 21
* CTWPRHHTTDALL [non-collagen control peptide No. 6, … (SEQ ID NO: 39)] | 1
* LPGP[Hyp]GP[Hyp]G [synthetic peptide No. 20, … (SEQ ID NO: 21)] | 35.5
* L[Hyp]GS[Hyp]G [synthetic peptide No. 10, LPGSPG (SEQ ID NO: 26)] | 3.5
* PGP[Hyp]GP[Hyp]GPY [synthetic peptide No. 4, … (SEQ ID NO: 28)] | 83
* LPGPPGPPG (also: hydroxyproline at marked P positions, if any, marking lost) [synthetic peptide No. 18, … (SEQ ID NO: 22)] | 5
* LPGFPGC (also: hydroxyproline marking, if any, lost) [synthetic peptide No. 9, LPGFPGC (SEQ ID NO: 37)] | 3.5
* L[Hyp]GP[Hyp]G [synthetic peptide No. 16, LPGPPG (SEQ ID NO: 24)] | 12
* GP[Hyp]GP[Hyp]GPY [synthetic peptide No. 3, … (SEQ ID NO: 30)] | 82.5
* [Hyp]GAKGLPGP [synthetic peptide No. 13, … (SEQ ID NO: 17)] | 6
* L[Hyp]GT[Hyp]G [synthetic peptide No. 8, LPGTPG (SEQ ID NO: 27)] | 2
* PGP[Hyp]GP[Hyp]GP [synthetic peptide No. 1, … (SEQ ID NO: 29)] | 40.5
* GPPG (also: hydroxyproline marking, if any, lost) [synthetic peptide No. 22, GPPG (SEQ ID NO: 35)] | 6
* [Hyp]GAKGLPGP[Hyp]GP[Hyp]GPY [synthetic peptide No. 12, … (SEQ ID NO: 2)] | 81
